Source listed as patent US20070265261A1.

target: DPP-IV (Homo sapiens); construct: Soluble human DPP-IV lacking the transmembrane anchor (Gly31-Pro766); Pre-Pro-alpha-mating factor leader (secretion signal) (N, cleaved yes); experiment: Inhibition of DPP-IV peptidase activity, continuous fluorimetric assay (cleavage of Gly-Pro-AMC); further: 16 µM Gly-Pro-AMC
Sequence (P27487 31-766): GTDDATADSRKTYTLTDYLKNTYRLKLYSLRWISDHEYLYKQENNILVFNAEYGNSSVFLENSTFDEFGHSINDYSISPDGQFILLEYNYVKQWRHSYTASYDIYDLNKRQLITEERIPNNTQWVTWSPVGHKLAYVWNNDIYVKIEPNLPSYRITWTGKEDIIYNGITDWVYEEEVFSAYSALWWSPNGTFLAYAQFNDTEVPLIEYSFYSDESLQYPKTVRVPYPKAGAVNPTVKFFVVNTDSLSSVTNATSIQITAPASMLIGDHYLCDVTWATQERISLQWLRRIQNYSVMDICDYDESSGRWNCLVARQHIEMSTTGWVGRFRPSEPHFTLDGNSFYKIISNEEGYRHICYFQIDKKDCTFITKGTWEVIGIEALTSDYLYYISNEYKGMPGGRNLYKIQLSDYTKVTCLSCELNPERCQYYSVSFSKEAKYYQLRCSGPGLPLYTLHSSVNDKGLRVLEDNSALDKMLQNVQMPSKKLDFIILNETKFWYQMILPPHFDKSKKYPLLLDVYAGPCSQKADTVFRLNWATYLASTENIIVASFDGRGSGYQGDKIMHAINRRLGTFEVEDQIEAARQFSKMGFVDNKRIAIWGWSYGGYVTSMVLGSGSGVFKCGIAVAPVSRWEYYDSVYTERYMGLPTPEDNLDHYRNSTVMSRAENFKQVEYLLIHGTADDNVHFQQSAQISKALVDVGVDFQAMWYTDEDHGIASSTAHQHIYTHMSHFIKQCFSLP
pIC50: −log10 of the molar value.
Assignment: determine reported pIC50 for the given compounds.

// solved cases for pIC50 follow
N[C@@H](Cc1cc(F)ccc1F)C1CCN(C(=O)c2cnccn2)CC1 (single isomer, unassigned)    6.00 to 7.00
NC(Cc1cc(F)ccc1F)C1CCN(C(=O)c2cnc(C(F)(F)F)nc2)CC1 (stereo not drawn)    > 7.00
NC(Cc1cccc(Cl)c1)C1CCN(C(=O)c2cn[nH]c2)CC1 (stereo not drawn)    6.00 to 7.00

Please supply pIC50 for each of the following items, keeping them in order.
1. NC(Cc1cc(F)ccc1F)C1CCN(C(=O)c2cccc(C(F)(F)F)n2)CC1 (stereo not drawn)
2. N[C@H](Cc1cc(F)cc(F)c1F)C1CCN(C(=O)c2ccnc(C(F)(F)F)n2)CC1
3. Cn1cnc(C(=O)N2CCC(C(N)Cc3cccc(Cl)c3)CC2)c1 (stereo not drawn)
4. Cc1cc(C(=O)N2CCC(C(N)Cc3cccc(Cl)c3)CC2)no1 (stereo not drawn)
5. N[C@H](Cc1cccc(Cl)c1)C1CCNCC1 (stereo in doubt)
6. NC(Cc1cccc(Cl)c1)C1CCN(S(=O)(=O)C2CC2)CC1 (stereo not drawn)
7. NC(Cc1cccc(Cl)c1)C1CCN(S(=O)(=O)Cc2ccccc2)CC1 (stereo not drawn)

Solution:
> 7.00
> 7.00
6.00 to 7.00
> 7.00
6.00 to 7.00
> 7.00
> 7.00

Go through the items and report each one's pIC50.
1. NC(Cc1cccc(Cl)c1)C1CCCNC1 (stereo not drawn)
2. N[C@H](Cc1cc(F)ccc1F)C1CCN(C(=O)c2ccc(C(F)(F)F)nc2)CC1
3. N[C@@H](Cc1cc(F)ccc1F)C1CCN(C(=O)c2ccnn2C(F)F)CC1 (single isomer, unassigned)
4. NC(Cc1cccc(Cl)c1)C1CCN(C(=O)c2ccc(C(F)(F)F)nc2)CC1 (stereo not drawn)
5. N[C@@H](Cc1cc(F)ccc1F)C1CCN(S(=O)(=O)C2CC2)CC1
6. NC(Cc1cccc(Cl)c1)C1CCN(C(=O)c2cccnc2)CC1 (stereo not drawn)
7. NC(Cc1cccc(Cl)c1)C1CCN(C(=O)CC2CC2)CC1 (stereo not drawn)

Solution:
["5.70 to 6.00", "> 7.00", "5.70 to 6.00", "> 7.00", "6.00 to 7.00", "> 7.00", "6.00 to 7.00"]

Exercise: Reported pIC50 for CC(C)(C)OC(=O)N1CCCC(C(N)Cc2cccc(Cl)c2)C1 (stereo not drawn) : what is it?
Solution: 6.00 to 7.00
